These data points were gathered from patent US11999727B2.

assayed_target: PRMT5 (Homo sapiens, UniProt O14744)
Construct: purchased Viva (custom protein)
Sequence (O14744 whole entry): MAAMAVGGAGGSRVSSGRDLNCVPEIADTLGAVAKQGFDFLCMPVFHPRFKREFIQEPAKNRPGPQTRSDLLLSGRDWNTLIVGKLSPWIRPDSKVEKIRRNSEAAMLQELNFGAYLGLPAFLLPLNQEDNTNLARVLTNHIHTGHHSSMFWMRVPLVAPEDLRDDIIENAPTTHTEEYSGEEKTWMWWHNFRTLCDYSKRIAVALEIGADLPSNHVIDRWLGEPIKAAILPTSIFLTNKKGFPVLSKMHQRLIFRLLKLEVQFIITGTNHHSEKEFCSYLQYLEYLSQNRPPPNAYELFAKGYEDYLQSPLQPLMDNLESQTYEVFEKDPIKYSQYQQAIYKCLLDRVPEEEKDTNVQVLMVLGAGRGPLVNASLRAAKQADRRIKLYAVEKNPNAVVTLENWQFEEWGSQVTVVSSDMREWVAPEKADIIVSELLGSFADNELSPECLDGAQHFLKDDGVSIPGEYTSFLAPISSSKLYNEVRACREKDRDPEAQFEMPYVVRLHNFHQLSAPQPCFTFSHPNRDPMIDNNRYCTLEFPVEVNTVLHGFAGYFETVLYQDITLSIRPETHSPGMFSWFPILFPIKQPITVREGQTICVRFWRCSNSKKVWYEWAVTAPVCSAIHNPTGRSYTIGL
Sequence (Q9BQA1 whole entry partner): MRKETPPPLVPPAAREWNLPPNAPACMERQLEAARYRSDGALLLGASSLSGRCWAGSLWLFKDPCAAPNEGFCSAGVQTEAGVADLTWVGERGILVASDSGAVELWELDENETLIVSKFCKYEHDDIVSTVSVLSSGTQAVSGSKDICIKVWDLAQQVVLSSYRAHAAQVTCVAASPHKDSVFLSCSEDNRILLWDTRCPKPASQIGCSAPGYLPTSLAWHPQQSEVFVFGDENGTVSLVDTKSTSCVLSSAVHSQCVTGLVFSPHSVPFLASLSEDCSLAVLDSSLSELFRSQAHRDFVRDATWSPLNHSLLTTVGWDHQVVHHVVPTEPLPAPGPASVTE
test_details: PRMT5 biochemical IC50 assay with SAM as cofactor
experimental_conditions: PRMT5, SAM as cofactor; read-out: SAM IC50
pIC50: −log10 of the molar value.
result_type: pIC50

The examples below pair each entry with its known result.
CCc1cc(NC(=O)C(=O)N2C[C@@H](C)C(F)(F)C[C@@H]2c2ccc(F)c(F)c2)cnc1N (single isomer, unassigned)	6.30 to 7.30
CCc1cc(NC(=O)C(=O)N2CC(C)CCC2c2ccc3sc(C4CCN(C)CC4C)nc3c2)cnc1N (racemic) [Compound 1227]	> 7.30
Cc1cc(NC(=O)C(=O)N2C[C@H](C)CC[C@H]2C23CC(C(N)=O)(C2)C3)cnc1N (single isomer, unassigned)	< 6.30
C[C@H]1CC[C@H](c2ccc(N)cc2)N(C(=O)C(=O)Nc2cncc(C(N)=O)c2)C1 (single isomer, unassigned)	< 6.30
CNc1ccc([C@@H]2CC[C@@H](C)CN2C(=O)C(=O)Nc2cncc(C(N)=O)c2)cn1 (single isomer, unassigned) [Compound 443]	6.30 to 7.30

Prompt line: Kindly state the measured pIC50 obtained for Cc1csc(C2CCCCN2C(=O)C(=O)Nc2cnc(N)c(C)c2)n1 (stereo not shown) with PRMT5 (Homo sapiens, UniProt O14744).
Response line: 6.30 to 7.30

Prompt line: Kindly state the measured pIC50 obtained for Cc1ccc([C@@H]2CC[C@@H](C)CN2C(=O)C(=O)Nc2cncc(C(N)=O)c2)cc1O (racemic) with PRMT5 (Homo sapiens, UniProt O14744).
Response line: 6.30 to 7.30

Prompt line: Kindly state the measured pIC50 obtained for CCc1cc(NC(=O)C(=O)N2C[C@H](C)CC[C@H]2c2ccc3c(c2)CCC(=O)N3)cnc1N (single isomer, unassigned) with PRMT5 (Homo sapiens, UniProt O14744).
Response line: 6.30 to 7.30

Prompt line: Kindly state the measured pIC50 obtained for CCc1cc(NC(=O)C(=O)N2C[C@@H](C)CC[C@@H]2c2cccc(OCCCN(C)C)c2)cnc1N with PRMT5 (Homo sapiens, UniProt O14744).
Response line: 6.30 to 7.30

Prompt line: Kindly state the measured pIC50 obtained for Cc1cc(NC(=O)C(=O)N2C[C@H](C)CC[C@H]2c2cnn(-c3ccn[nH]3)c2)cnc1N (racemic) with PRMT5 (Homo sapiens, UniProt O14744).
Response line: 6.30 to 7.30

Prompt line: Kindly state the measured pIC50 obtained for CCc1cc(NC(=O)C(=O)N2C[C@H](C)CC[C@H]2c2ccc3c(c2)CNC3=O)cnc1N (single isomer, unassigned) with PRMT5 (Homo sapiens, UniProt O14744).
Response line: < 6.30

Prompt line: Kindly state the measured pIC50 obtained for CCc1cc(NC(=O)C(=O)N2C[C@@H](C)CC[C@@H]2c2ccc3sc([C@H]4C[C@@H]5CN(C)C[C@@H]5C4)nc3c2)cnc1N with PRMT5 (Homo sapiens, UniProt O14744).
Response line: > 7.30

Prompt line: Kindly state the measured pIC50 obtained for CNc1nc2cc([C@@H]3CC[C@@H](C)CN3C(=O)C(=O)Nc3cnc(N)c(C)c3)ccc2s1 (single isomer, unassigned) with PRMT5 (Homo sapiens, UniProt O14744).
Response line: < 6.30
